Please provide measured interaction score for the entries that follow.
# target.system: T1, 4H2673-bH
# T1 chain: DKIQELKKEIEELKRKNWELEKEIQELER
# method: two-hybrid library CCNG1;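 note: natural log of median RNA to DNA barcode read ratio; higher means stronger binding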

Reference set (2 entries):
binder="DENQELKKKIEELERKIWELEKKNQELER [4H1831-bH]" readout_type="interaction score" reported_value=0.349
binder="DEIQELEKENEELERKIWELKKEIQELKR [4H170-bH]" readout_type="interaction score" reported_value=-0.0221

Then this binder:
Entry under review: DKIQELKKEIEELERENWELKKEIQELKR [4H2586-bH] . Reported interaction score? 1.76
